- System: Enterobacter cloacae
- measurement.description: MIC micro broth dilution assay
- Type: cell-based
- protocol.conditions: Enterobacter cloacae, E. cloacae isolate 1446
measured.property: MIC (µM)
Reply numerically in µM, unit not repeated.

> print(dat)
                                smiles.repr         tested.system  reported
1  CCCCCCCN1C(=N)N(CCCC[C@H]2CNC(=N)N2CCc2cccc(C(F)(F)F)c2)C[C@@H]1CCCC  Enterobacter cloacae         7
2  CCCCCCCN1C(=N)N(CCCC[C@H]2CNC(=N)N2CCc2cccc(C(F)(F)F)c2)C[C@@H]1CC1CCCCC1  Enterobacter cloacae         5
3  CCCC[C@H]1CN(CCCC[C@H]2CNC(=N)N2CCc2cccc(C(F)(F)F)c2)C(=N)N1CCCCC1CCCCC1  Enterobacter cloacae         7

# input for lookup
Request: MIC, test system Enterobacter cloacae, entry CCCCCCCN1C(=N)N(CCCC[C@H]2CNC(=N)N2CCCCC2CCCCC2)C[C@@H]1CC1CCCCC1
5

The measured values listed here are drawn from patent US20170065564A1.
